experiment: HCT116 colon cancer cell growth inhibition, primary screen, CellTiter-Glo luminescence, NPC library (AID 1117342); conditions: at 20 µM (top of the series)
Activity calls are given as the source filed them.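 How the source made its calls: active means compounds that lower survival of HCT116 colon cancer cells in the luminescence readout, no numeric limit stated; inactive means the rest.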 Starred links: 1 amine or outer side, 2 acyl side, 3 side chain; linkers in the order of their positions; H or OH if unused. Positions of bridges follow the written chain, without caps; N, C: chain ends. Non-standard residues stand in square brackets, D forms with d. Residues, ends and D or L forms follow the SMILES beside them. Chains are numbered I, II in the order given. Actinocin(9to1) = Cc1c2oc3c(C)ccc(C(=O)[*:1])c3nc-2c(C(=O)[*:2])c(N)c1=O; NMeV = CN[C@H](C(=O)O)C(C)C; Sar = CNCC(=O)O
Possible outcomes: active, inactive

| COMPOUND | GROUP_LABEL |
| --- | --- |
| COC(=O)CCc1ccc(OCC(O)CNC(C)C)cc1 (stereo not drawn) | inactive |
| CCCCNc1c(C(=O)OCC)c(C)nc2c1cnn2CC | active |
| O=C1CC2(CCCC2)CC(=O)N1CCCCN1CCN(c2ncccn2)CC1 | inactive |
| NC/C=C/C(=O)O | inactive |
| CCC1(C)CC(=O)NC1=O (stereo not drawn) | inactive |
| O=C(O)CCCCC1CCSS1 (stereo not drawn) | inactive |
| CO[C@H]1C=CO[C@@]2(C)Oc3c(C)c(O)c4c(O)c(c(/C=N/N5CCN(C)CC5)c(O)c4c3C2=O)NC(=O)/C(C)=C\C=C[C@H](C)[C@H](O)[C@@H](C)[C@@H](O)[C@@H](C)[C@H](OC(C)=O)[C@@H]1C | active |
| CSc1ccc2c(c1)C(N1CCN(C)CC1)Cc1ccccc1S2 (stereo not drawn) | active |
| COC(=O)[C@@H]1[C@H]2C[C@H]3c4[nH]c5ccccc5c4CCN3C[C@@H]2CC[C@@H]1O | inactive |
| Cc1c2oc3c(C)ccc(C(=O)N[C@@H]4C(=O)N[C@H](C(C)C)C(=O)N5CCC[C@H]5C(=O)N(C)CC(=O)N(C)[C@@H](C(C)C)C(=O)O[C@@H]4C)c3nc-2c(C(=O)N[C@@H]2C(=O)N[C@H](C(C)C)C(=O)N3CCC[C@H]3C(=O)N(C)CC(=O)N(C)[C@@H](C(C)C)C(=O)O[C@@H]2C)c(N)c1=O (I: T[dV]P[Sar][NMeV] / II: T[dV]P[Sar][NMeV]; ester I:1-I:C, II:1-II:C; linker I:N-II:N via Actinocin(9to1)) | active |
| CC1=C(C(=O)O)N2C(=O)[C@@H](NC(=O)[C@H](N)C3=CCC=CC3)[C@H]2SC1 | inactive |
| C=C[C@@]1(C)CC(=O)[C@]2(O)[C@@]3(C)[C@@H](O)CCC(C)(C)[C@@H]3[C@H](O)[C@H](OC(C)=O)[C@@]2(C)O1 | inactive |
| CC(C)(C)CC(C)(C)c1ccc(O)c(Cc2ccc(Cl)cc2Cl)c1 | active |
| O=C1c2ccccc2C(=O)c2c1ccc(O)c2O | inactive |
| CCc1c(C)[nH]c2c1C(=O)C(CN1CCOCC1)CC2 (stereo not drawn) | inactive |
| S=P(N1CC1)(N1CC1)N1CC1 | inactive |
| O=C(Cn1ccnc1[N+](=O)[O-])NCCO | inactive |
| CN1CCN(c2c(F)cc3c(=O)c(C(=O)O)cn4c3c2SCC4)CC1 | inactive |
